# Test system: Escherichia coli
# method-summary: Antibacterial activity against Escherichia coli at 75 ug/ml after 18 to 24 hrs by disc diffusion method
# Assay type: functional
# assay-context: read-out: IZ
measured-endpoint: zone of inhibition at 75 µg/mL
State the result as a value with its unit after it.

Below are worked cases with known answers.
Cc1nn(CC(=O)N2c3ccccc3Sc3ccccc32)c(=N)s1 : 25 mm
Cc1ccc(-c2nn(CC(=O)N3c4ccccc4Sc4ccc(C(F)(F)F)cc43)c(=N)s2)cc1 : 13 mm

Now consider a different molecule.
Challenge: # query: zone of inhibition at 75 µg/mL of entry Cc1ccc(-c2nn(CC(=O)N3c4ccccc4Sc4ccc(Cl)cc43)c(=N)s2)cc1
Response given: 9 mm
